assay.notes: Pharmacokinetic study in male Sprague Dawley rats
Assay type: in vivo, rat
condition.label: male, Sprague Dawley, rat, plasma, oral, 10 mg/kg, 10 mg/kg PO, Male Sprague Dawley Rats, 2 h, Rat-1; read-out: Plasma Concentration (ng/mL) Rat-1
result.type: concentration at 2 h (ng/mL)
Give bare numbers, in ng/mL.

# concentration at 2 h (molecule: COc1cc(-c2cn(C)c(=O)c(C)c2C)cc(OC)c1CN1CC[C@H](N2CCN(c3ccc(N[C@H]4CCC(=O)NC4=O)cc3F)CC2)C(F)(F)C1 ) is 560

###

assay.notes: Pharmacokinetic study in male CD1 mice
Type: in vivo, mouse
condition.label: male, CD1, mouse, plasma, intravenous, 2 mg/kg, 2 mg/kg IV, 2 h; read-out: Plasma Concentration, individual mice
result.type: concentration at 2 h (ng/mL)
One number for each entry, in ng/mL.

# concentration at 2 h (compound: COc1cc(-c2cn(C)c(=O)c(C)c2C)cc(OC)c1CN1CC[C@H](N2CCN(c3ccc(N[C@H]4CCC(=O)NC4=O)cc3F)CC2)C(F)(F)C1 [Compound 1] ) is 809

###

assay.notes: Pharmacokinetic study in male CD1 mice
Format: in vivo, mouse
condition.label: male, CD1, mouse, plasma, oral, 10 mg/kg, 10 mg/kg PO, 8 h; read-out: Plasma Concentration, individual mice
result.type: concentration at 8 h (ng/mL)
Give bare numbers, in ng/mL.

# concentration at 8 h (compound: COc1cc(-c2cn(C)c(=O)c(C)c2C)cc(OC)c1CN1CC[C@H](N2CCN(c3ccc(N[C@H]4CCC(=O)NC4=O)cc3F)CC2)C(F)(F)C1 ) is 1170
